endpoint-label: melting point

>>> measured_result("COc1cc(C(=S)NC(=O)NC(=O)c2ccccc2)ccc1O")
"176 to 177 °C"
>>> measured_result("O=C(NC(=O)c1ccccc1)Nc1cnc2ccccc2c1 [Compound 14, N-(Quinolin-3-ylcarbamoyl)benzamide]")
"233 to 236 °C"
>>> measured_result("Cc1cc(C)nc(NC(=O)NC(=O)c2ccccc2)n1")
"183 to 185 °C"
>>> measured_result("CC(C)(C)OC(=O)N1CCC(NC(=O)NC(=O)c2ccccc2)CC1")
"164 to 166 °C"
>>> measured_result("O=C(NC(=O)N1CCC(O)CC1)c1ccccc1")
"170 to 172 °C"

* * *

Catalogue of molecules with associated melting point
endpoint-label: melting point

>>> measured_result("O=C(NC(=O)N1CCN(c2ccncc2)CC1)c1ccccc1")
"161 to 163 °C"
>>> measured_result("O=C(NC(=S)Nc1cc2ccccc2cn1)c1ccccc1")
"162 to 165 °C"
>>> measured_result("Cc1c(C)c2c(c(C)c1O)CCC(C)(C(=O)NC(=O)NC(=O)c1ccccc1)O2 (stereo not drawn)")
"155 to 157 °C"
>>> measured_result("O=C(NC(=O)c1ccccc1)NC(=S)c1ccccn1")
"180 to 182 °C"
>>> measured_result("Cc1cc2cc(NC(=O)NC(=O)c3ccccc3)ccc2[nH]1")
"209 to 211 °C"
>>> measured_result("O=C(NC(=O)N1CCN(c2ncccn2)CC1)c1ccccc1")
"145 to 147 °C"
>>> measured_result("Cc1ccc(N2CCN(C(=O)NC(=O)c3ccccc3)CC2)cc1")
"158 to 160 °C"
>>> measured_result("O=C(NC(=O)c1ccccc1)Nc1cc2ccccc2cn1 [Compound 15, N-(Isoquinolin-3-ylcarbamoyl)benzamide]")
"237 to 238 °C"
>>> measured_result("O=C(NC(=O)c1ccccc1)Nc1nc2ccccc2o1")
"180 to 182 °C"

* * *

study-system: σ1R (Homo sapiens)
Sequence (Q99720 whole entry, species assumed): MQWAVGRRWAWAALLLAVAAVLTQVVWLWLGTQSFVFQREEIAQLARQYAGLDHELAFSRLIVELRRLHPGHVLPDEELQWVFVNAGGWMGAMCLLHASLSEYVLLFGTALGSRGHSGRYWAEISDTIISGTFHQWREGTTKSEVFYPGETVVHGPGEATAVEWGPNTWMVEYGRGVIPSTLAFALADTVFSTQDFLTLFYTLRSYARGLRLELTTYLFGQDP
endpoint-label: Ki

>>> measured_result("O=C(NC(=S)Nc1cc2ccccc2cn1)c1ccccc1")
"> 10 µM"
>>> measured_result("O=C(NC(=O)c1ccccc1)Nc1nc2ccccc2o1")
"2.18 µM"
>>> measured_result("O=C(NC(=O)c1ccccc1)Nc1cc2ccccc2cn1 [Compound 15, N-(Isoquinolin-3-ylcarbamoyl)benzamide]")
"> 10 µM"
>>> measured_result("O=C(NC(=O)c1ccccc1)Nc1cnc2ccccc2c1 [Compound 14, N-(Quinolin-3-ylcarbamoyl)benzamide]")
"> 10 µM"
>>> measured_result("Cc1ccc(N2CCN(C(=O)NC(=O)c3ccccc3)CC2)cc1")
"> 10 µM"
>>> measured_result("O=C(NC(=O)N1CCN(c2ncccn2)CC1)c1ccccc1")
"> 10 µM"
